Attribute: Control of weed species, ORYSA (damage score)
# Tested on: Oryza sativa (ORYSA)
# experiment_summary: Post-emergence herbicidal activity
# Format: in vivo
# condition_info: post-emergence application, 1000 g/Ha, evaluated after 13 days, scale 0-5
measured_parameter: Control of weed species, ORYSA (damage score)

[
  {
    "molecular_string": "Cc1nc(-c2cccnc2)sc1N(C)C(=O)Oc1ccc([N+](=O)[O-])cc1",
    "recorded_result": 0
  },
  {
    "molecular_string": "CN(C(=O)OC(C)(C)C)c1sc(-c2cncc(Cl)c2)nc1C(F)(F)F",
    "recorded_result": 1
  },
  {
    "molecular_string": "Cc1nc(-c2cncc(C#N)c2)sc1N(C)C(=O)OC(C)(C)C",
    "recorded_result": 1
  },
  {
    "molecular_string": "Cc1nc(-c2cccnc2)sc1N(C)C(=O)OC(C)C",
    "recorded_result": 0
  },
  {
    "molecular_string": "Cc1nc(-c2cncc(N)c2)sc1N(C)C(=O)OC(C)(C)C",
    "recorded_result": 1
  },
  {
    "molecular_string": "Cc1nc(-c2cncc(N(C)C)c2)sc1N(C)C(=O)OC(C)(C)C",
    "recorded_result": 1
  },
  {
    "molecular_string": "CN(C(=O)OC(C)(C)C)c1sc(-c2cncc(F)c2)nc1Br",
    "recorded_result": 0
  },
  {
    "molecular_string": "CN(C(=O)OC(C)(C)C)c1sc(-c2cncc(F)c2)nc1C(F)(F)F",
    "recorded_result": 2
  },
  {
    "molecular_string": "CN(C(=O)OC(C)(C)C)c1sc(-c2cccnc2)nc1I",
    "recorded_result": 1
  }
]

###

# Test system: Lolium perenne (LOLPE)
# experiment_summary: Pre-emergence herbicidal activity
# Assay type: in vivo
# condition_info: pre-emergence application, 1000 g/Ha, evaluated after 13 days, scale 0-5; Table 5
Listed here: items and their measured Control of weed species, LOLPE (damage score).
measured_parameter: Control of weed species, LOLPE (damage score)

[
  {
    "molecular_string": "CN(C(=O)OC(C)(C)C)c1sc(-c2cncc(F)c2)nc1I",
    "recorded_result": 3
  },
  {
    "molecular_string": "Cc1nc(-c2cncc(O)c2)sc1N(C)C(=O)OC(C)(C)C",
    "recorded_result": 0
  },
  {
    "molecular_string": "Cc1nc(-c2cccnc2)sc1N(C)C(=O)NC(C)(C)C",
    "recorded_result": 1
  },
  {
    "molecular_string": "Cc1nc(-c2cncc(OCc3ccccc3)c2)sc1N(C)C(=O)OC(C)(C)C",
    "recorded_result": 1
  },
  {
    "molecular_string": "COc1cncc(-c2nc(C(F)(F)F)c(N(C)C(=O)OC(C)(C)C)s2)c1",
    "recorded_result": 2
  },
  {
    "molecular_string": "Cc1nc(-c2cncc(C(F)(F)F)c2)sc1N(C)C(=O)OC(C)(C)C",
    "recorded_result": 1
  },
  {
    "molecular_string": "Cc1nc(-c2cc(F)c[n+]([O-])c2)sc1N(C)C(=O)OC(C)(C)C",
    "recorded_result": 2
  },
  {
    "molecular_string": "Cc1nc(-c2cccnc2)sc1N(C)C(=S)SC(C)(C)C",
    "recorded_result": 0
  },
  {
    "molecular_string": "CCOC(=O)N(C)c1sc(-c2cccnc2)nc1C",
    "recorded_result": 1
  },
  {
    "molecular_string": "Cc1nc(-c2cccnc2)sc1N(C)C(=O)SC(C)(C)C",
    "recorded_result": 0
  },
  {
    "molecular_string": "Cc1nc(-c2cccnc2)sc1N(C)C(=O)OC(C)C",
    "recorded_result": 2
  },
  {
    "molecular_string": "Cc1nc(-c2cncc(N(C)C)c2)sc1N(C)C(=O)OC(C)(C)C",
    "recorded_result": 0
  },
  {
    "molecular_string": "Cc1nc(-c2cncc(C=O)c2)sc1N(C)C(=O)OC(C)(C)C",
    "recorded_result": 0
  },
  {
    "molecular_string": "CN(C(=O)OC(C)(C)C)c1sc(-c2cncnc2)nc1C(F)(F)F",
    "recorded_result": 3
  },
  {
    "molecular_string": "Cc1nc(-c2cncnc2)sc1N(C)C(=O)OC(C)(C)C",
    "recorded_result": 2
  },
  {
    "molecular_string": "CN(C(=O)OC(C)(C)C)c1sc(-c2cccnc2)nc1F",
    "recorded_result": 1
  },
  {
    "molecular_string": "Cc1nc(-c2cncc(N)c2)sc1N(C)C(=O)OC(C)(C)C",
    "recorded_result": 0
  },
  {
    "molecular_string": "Cc1nc(-c2cncc(Cl)c2)sc1N(C)C(=O)OC(C)(C)C",
    "recorded_result": 2
  },
  {
    "molecular_string": "CN(C(=O)OC(C)(C)C)c1sc(-c2cncc(F)c2)nc1Br",
    "recorded_result": 3
  },
  {
    "molecular_string": "CN(C(=O)OC(C)(C)C)c1sc(-c2cccnc2)nc1C(F)(F)F",
    "recorded_result": 3
  },
  {
    "molecular_string": "Cc1nc(-c2cncc(F)c2)sc1N(C)C(=O)OC(C)(C)C",
    "recorded_result": 2
  },
  {
    "molecular_string": "CCN(C(=O)OC(C)(C)C)c1sc(-c2cccnc2)nc1C",
    "recorded_result": 0
  },
  {
    "molecular_string": "CN(C(=O)OC(C)(C)C)c1sc(-c2cccnc2)nc1Br",
    "recorded_result": 2
  },
  {
    "molecular_string": "Cc1nc(-c2cncc(C#N)c2)sc1N(C)C(=O)OC(C)(C)C",
    "recorded_result": 2
  },
  {
    "molecular_string": "CN(C(=O)OC(C)(C)C)c1sc(-c2cccnc2)nc1I",
    "recorded_result": 2
  },
  {
    "molecular_string": "Cc1nc(-c2cncc(F)c2)sc1N1CCOC1=O",
    "recorded_result": 2
  }
]

###

Quick list: Control of weed species, TRZAW (damage score) per entry.
# Test system: Triticum aestivium (TRZAW)
# experiment_summary: Post-emergence herbicidal activity
# Assay type: in vivo
# condition_info: post-emergence application, 1000 g/Ha, evaluated after 13 days, scale 0-5
measured_parameter: Control of weed species, TRZAW (damage score)

[
  {
    "compound": "CN(C(=O)OC(C)(C)C)c1sc(-c2cccnc2)nc1Cl [Compound A29]",
    "recorded_result": 1
  },
  {
    "compound": "Cc1nc(-c2cccnc2)sc1N(C)C(=O)Oc1ccc([N+](=O)[O-])cc1 [Compound A61]",
    "recorded_result": 1
  },
  {
    "compound": "Cc1nc(-c2cncc(O)c2)sc1N(C)C(=O)OC(C)(C)C [Compound A15]",
    "recorded_result": 1
  },
  {
    "compound": "Cc1nc(-c2cc(F)c[n+]([O-])c2)sc1N(C)C(=O)OC(C)(C)C [Compound A62]",
    "recorded_result": 1
  },
  {
    "compound": "COc1cncc(-c2nc(C)c(N(C)C(=O)OC(C)(C)C)s2)c1 [Compound A6]",
    "recorded_result": 1
  },
  {
    "compound": "Cc1nc(-c2cccnc2)sc1N(C)C(=O)SC(C)(C)C [Compound A22]",
    "recorded_result": 0
  },
  {
    "compound": "Cc1nc(-c2cncc(F)c2)sc1NC(=O)OC(C)(C)C [Compound A35]",
    "recorded_result": 1
  },
  {
    "compound": "Cc1nc(-c2cccnc2)sc1N(C)C(=S)SC(C)(C)C [Compound A23]",
    "recorded_result": 0
  },
  {
    "compound": "CCN(C(=O)OC(C)(C)C)c1sc(-c2cccnc2)nc1C [Compound A17]",
    "recorded_result": 1
  },
  {
    "compound": "Cc1nc(-c2cncc(C=O)c2)sc1N(C)C(=O)OC(C)(C)C [Compound A5]",
    "recorded_result": 0
  },
  {
    "compound": "CN(C(=O)OC(C)(C)C)c1sc(-c2cccnc2)nc1Br [Compound A30]",
    "recorded_result": 2
  },
  {
    "compound": "CN(C(=O)OC(C)(C)C)c1sc(-c2cncc(F)c2)nc1C(F)(F)F [Compound A24]",
    "recorded_result": 1
  },
  {
    "compound": "Cc1nc(-c2cccnc2)sc1N(C)C(=O)NC(C)(C)C [Compound A21]",
    "recorded_result": 1
  },
  {
    "compound": "Cc1nc(-c2cncc(Cl)c2)sc1N(C)C(=O)OC(C)(C)C [Compound A4]",
    "recorded_result": 1
  },
  {
    "compound": "CN(C(=O)OC(C)(C)C)c1sc(-c2cccnc2)nc1I [Compound A31]",
    "recorded_result": 1
  },
  {
    "compound": "Cc1nc(-c2cncc(F)c2)sc1N(C)C(=O)OC(C)(C)C [Compound A3]",
    "recorded_result": 1
  },
  {
    "compound": "Cc1nc(-c2cccnc2)sc1N(C)C(=O)OC(C)C [Compound A20]",
    "recorded_result": 1
  },
  {
    "compound": "COC(=O)N(C)c1sc(-c2cccnc2)nc1C [Compound A18]",
    "recorded_result": 1
  },
  {
    "compound": "CSc1cncc(-c2nc(C)c(N(C)C(=O)OC(C)(C)C)s2)c1 [Compound A12]",
    "recorded_result": 2
  },
  {
    "compound": "Cc1nc(-c2cncc(N)c2)sc1N(C)C(=O)OC(C)(C)C [Compound A11]",
    "recorded_result": 2
  },
  {
    "compound": "Cc1nc(-c2cncc(OCc3ccccc3)c2)sc1N(C)C(=O)OC(C)(C)C [Compound A14]",
    "recorded_result": 0
  },
  {
    "compound": "CN(C(=O)OC(C)(C)C)c1sc(-c2cncc(F)c2)nc1I [Compound A52]",
    "recorded_result": 1
  },
  {
    "compound": "Cc1nc(-c2cncc(S(C)(=O)=O)c2)sc1N(C)C(=O)OC(C)(C)C [Compound A9]",
    "recorded_result": 2
  },
  {
    "compound": "Cc1nc(-c2cncc(N(C)C)c2)sc1N(C)C(=O)OC(C)(C)C [Compound A13]",
    "recorded_result": 2
  },
  {
    "compound": "Cc1nc(-c2cncc(C#N)c2)sc1N(C)C(=O)OC(C)(C)C [Compound A7]",
    "recorded_result": 2
  },
  {
    "compound": "Cc1nc(-c2cncc(F)c2)sc1N1CCOC1=O [Compound A38]",
    "recorded_result": 1
  },
  {
    "compound": "CN(C(=O)OC(C)(C)C)c1sc(-c2cncnc2)nc1C(F)(F)F [Compound A26]",
    "recorded_result": 1
  },
  {
    "compound": "CN(C(=O)OC(C)(C)C)c1sc(-c2cccnc2)nc1C(F)(F)F [Compound A25]",
    "recorded_result": 2
  }
]
